Could you please report measured Emax for the items listed next?
target: human orexin type 2 receptor (hOX2R) (Homo sapiens); construct: expressed in transfected cells; experiment: Measurement of orexin type 2 receptor agonist activity (FLIPR calcium fluorescence); assay type: cell-based; conditions: CHO, CHO cells expressing hOX2R, FLIPR calcium fluorescence; read-out: hOx2 Emax (%)
Sequence (O43614 whole entry): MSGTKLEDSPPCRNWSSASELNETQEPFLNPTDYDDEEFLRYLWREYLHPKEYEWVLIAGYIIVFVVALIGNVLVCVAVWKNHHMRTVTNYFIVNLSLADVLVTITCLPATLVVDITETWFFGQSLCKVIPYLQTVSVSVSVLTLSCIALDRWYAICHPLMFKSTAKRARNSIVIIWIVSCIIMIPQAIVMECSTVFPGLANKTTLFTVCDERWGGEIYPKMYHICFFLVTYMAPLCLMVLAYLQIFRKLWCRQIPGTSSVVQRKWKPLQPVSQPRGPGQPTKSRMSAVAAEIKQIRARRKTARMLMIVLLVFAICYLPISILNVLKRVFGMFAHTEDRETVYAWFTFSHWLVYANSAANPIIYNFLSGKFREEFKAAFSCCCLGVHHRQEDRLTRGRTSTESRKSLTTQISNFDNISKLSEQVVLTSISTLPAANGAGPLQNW

Known Emax results, listed for orientation:
- COMPOUND: "CC1CN(C(=O)N2CC3(CC3)C(NS(C)(=O)=O)C2Cc2cccc(-c3ccccc3)c2)C1 (racemic)"
  Emax: "90 to 100%"
- COMPOUND: "COCCNC(=O)N1CC2(CC2)[C@H](NS(C)(=O)=O)[C@@H]1Cc1cccc(-c2ccccc2)c1F [Compound 311]"
  Emax: "90 to 100%"
- COMPOUND: "O=C(NCC1COC1)N1CC2(CC2)[C@H](NS(=O)(=O)CF)[C@@H]1Cc1cccc(-c2ccccc2)c1F"
  Emax: "90 to 100%"

Now consider the entry below.
Task item: Output Emax of CCS(=O)(=O)NC1C(Cc2cccc(-c3ccccc3)c2)N(C(=O)OC)CC12CC2 (racemic)
Reply: 70 to 80%
